meta.source: ChEMBL document CHEMBL4014296

protocol details: Inhibition of alpha glucosidase (unknown origin) using alpha PNPG as substrate at 0.125 mg/mL preincubated for 15 mins followed by substrate addition measured after 15 mins relative to control
settings: Homo sapiens
The following compounds are listed with their measured inhibition values.
experimental readout: inhibition (%)

- O=c1c(-c2ccc(O)cc2)coc2cc(O[C@@H]3O[C@H](CO)[C@@H](O)[C@H](O)[C@H]3O)ccc12 [DAIDZIN]: 66.8
- CC1(C)C=Cc2cc3c(cc2O1)O[C@@H]1c2ccc(O)cc2OC[C@@]31O: 49.9
- O=c1c(-c2ccc(O)cc2)coc2c([C@@H]3O[C@H](CO)[C@@H](O)[C@H](O)[C@H]3O)c(O)ccc12 [PUERARIN]: 21.9
- COc1ccc(-c2coc3cc(O[C@@H]4O[C@H](CO)[C@@H](O)[C@H](O)[C@H]4O)ccc3c2=O)cc1 [ONONIN]: 31.6
